B1: H2-Kb / Ed23 (parent complex)
chain 1: QQKVQQSPESLTVSEGAMASLNCTFSDRSSDNFRWYRQHSGKGLEVLVSIFSDGEKEEGSFTAHLNRASLHVFLHIREPQPSDSALYLCAVRGFWTNKVVFGTGTRLQVLP
chain 2: AQTIHQWPVAEIKAVGSPLSLGCTIKGKSSPNLYWYWQATGGTLQQLFYSITVGQVESVVQLNLSASRPKDDQFILSTEKLLLSHSGFYLCAWSPRQSSYEQYFGPGTRLTVL
chain 3: not shown
chain 4: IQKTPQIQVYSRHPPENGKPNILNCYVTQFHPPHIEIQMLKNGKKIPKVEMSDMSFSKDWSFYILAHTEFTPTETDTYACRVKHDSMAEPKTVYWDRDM
chain 5: SIINFEKL

- Variants of: B1
- Method notes: % of reporter cells activated (NFAT-GFP), raw; further: test concentration or dose not given here
Note that class boundaries on ratio to parent are low group (below 0.7), middle group (0.7 to below 1), high group (1 or more)

Q) Band for the recorded ratio to parent of chain 5 I3K ?
A) middle group

Q) Quick check: band for chain 5 N4S
A) low group

Q) Consider chain 5 I3L . To which ratio to parent class does it belong?
A) high group

Q) Which category does the recorded ratio to parent put chain 5 K7Q in?
A) low group

Q) Pick a category. Item: chain 5 S1W
A) low group

Q) Band assignment needed for chain 5 K7F please.
A) low group

Q) Tag the class for chain 5 N4Y
A) middle group

Q) Please report the category associated with chain 5 I3F , nothing else.
A) low group

Q) Any idea which band chain 5 E6S is in?
A) low group

Q) Lab note: sort chain 5 I2A into the matching ratio to parent band.
A) high group

Q) Which ratio to parent category applies to chain 5 E6C here?
A) low group

Q) Exam item: assign chain 5 N4T to the correct category.
A) low group

Q) Class label required: chain 5 I2W
A) high group

Q) GET /class?item= chain 5 K7G
A) high group

Q) For this variant, which bin applies? chain 5 E6R
A) low group

Q) Would you mind sorting chain 5 N4K into the appropriate category?
A) middle group

Q) Into which category would you place chain 5 F5A ?
A) high group

Q) # bin lookup: classify chain 5 E6K by its ratio to parent
A) high group

Q) Please classify: chain 5 K7T
A) low group

Q) Into which bin does this variant go? chain 5 I2D
A) high group

Q) Looking at chain 5 E6T , which class would you pick?
A) low group

Q) Hello team, could you let me know which band the following variant falls into: chain 5 S1G
A) middle group

Q) Kindly state the category for this variant: chain 5 I3G
A) high group

Q) Class for chain 5 E6F ?
A) low group

Q) Kindly identify the class of chain 5 K7L .
A) low group

Q) Form field 'band' for chain 5 I2F
A) high group

Q) Assign a category based on measured ratio to parent for chain 5 I2T and give only the class name.
A) high group

Q) Category lookup for the variant chain 5 I2V
A) high group

Q) Place this variant in its band: chain 5 I2Y
A) middle group

Q) Into which bin does this variant go? chain 5 F5L
A) high group

Q) The entry to classify is chain 5 S1T ; which class holds it?
A) high group

Q) Could you tell me which band chain 5 K7P belongs to?
A) middle group

Q) Tag the class for chain 5 F5N
A) high group

Q) Bin? chain 5 L8H
A) high group

Q) Please indicate the class for chain 5 I2H based on its ratio to parent.
A) high group

Q) Which category does the recorded ratio to parent put chain 5 I3H in?
A) high group

Q) Given chain 5 S1C , name the class its ratio to parent places it in.
A) middle group

Q) Into which category would you place chain 5 E6L ?
A) low group

Q) Which category does the recorded ratio to parent put chain 5 I3C in?
A) high group

Q) State the class of the variant shown: chain 5 N4F
A) low group

Q) Category of chain 5 I3N :
A) high group

Q) Entry chain 5 L8E belongs to which category?
A) middle group

Q) Which ratio to parent band matches chain 5 N4W ?
A) high group

Q) Kindly state the category for this variant: chain 5 F5K
A) high group

Q) Form: Item = chain 5 I3D ; Class = ?
A) middle group

Q) Just checking, what class would you give chain 5 E6Q here?
A) low group

Q) Into which bin does this variant go? chain 5 I3S
A) high group

Q) Lab log: chain 5 I2K — assign ratio to parent category
A) high group

Q) Given chain 5 I2P , name the class its ratio to parent places it in.
A) high group

Q) Given chain 5 F5S , name the class its ratio to parent places it in.
A) high group

Q) Hi, small favor: classify chain 5 L8R by its ratio to parent when you get a moment.
A) high group

Q) Please indicate the class for chain 5 I2N based on its ratio to parent.
A) high group

Q) Band for chain 5 L8G ?
A) high group
